Where do these numbers come from? They come from patent US20030186334A1.

- test-system: human α1β1 integrin (human), P56199
- Sequence (P56199 29-1179, chain 1 of 2): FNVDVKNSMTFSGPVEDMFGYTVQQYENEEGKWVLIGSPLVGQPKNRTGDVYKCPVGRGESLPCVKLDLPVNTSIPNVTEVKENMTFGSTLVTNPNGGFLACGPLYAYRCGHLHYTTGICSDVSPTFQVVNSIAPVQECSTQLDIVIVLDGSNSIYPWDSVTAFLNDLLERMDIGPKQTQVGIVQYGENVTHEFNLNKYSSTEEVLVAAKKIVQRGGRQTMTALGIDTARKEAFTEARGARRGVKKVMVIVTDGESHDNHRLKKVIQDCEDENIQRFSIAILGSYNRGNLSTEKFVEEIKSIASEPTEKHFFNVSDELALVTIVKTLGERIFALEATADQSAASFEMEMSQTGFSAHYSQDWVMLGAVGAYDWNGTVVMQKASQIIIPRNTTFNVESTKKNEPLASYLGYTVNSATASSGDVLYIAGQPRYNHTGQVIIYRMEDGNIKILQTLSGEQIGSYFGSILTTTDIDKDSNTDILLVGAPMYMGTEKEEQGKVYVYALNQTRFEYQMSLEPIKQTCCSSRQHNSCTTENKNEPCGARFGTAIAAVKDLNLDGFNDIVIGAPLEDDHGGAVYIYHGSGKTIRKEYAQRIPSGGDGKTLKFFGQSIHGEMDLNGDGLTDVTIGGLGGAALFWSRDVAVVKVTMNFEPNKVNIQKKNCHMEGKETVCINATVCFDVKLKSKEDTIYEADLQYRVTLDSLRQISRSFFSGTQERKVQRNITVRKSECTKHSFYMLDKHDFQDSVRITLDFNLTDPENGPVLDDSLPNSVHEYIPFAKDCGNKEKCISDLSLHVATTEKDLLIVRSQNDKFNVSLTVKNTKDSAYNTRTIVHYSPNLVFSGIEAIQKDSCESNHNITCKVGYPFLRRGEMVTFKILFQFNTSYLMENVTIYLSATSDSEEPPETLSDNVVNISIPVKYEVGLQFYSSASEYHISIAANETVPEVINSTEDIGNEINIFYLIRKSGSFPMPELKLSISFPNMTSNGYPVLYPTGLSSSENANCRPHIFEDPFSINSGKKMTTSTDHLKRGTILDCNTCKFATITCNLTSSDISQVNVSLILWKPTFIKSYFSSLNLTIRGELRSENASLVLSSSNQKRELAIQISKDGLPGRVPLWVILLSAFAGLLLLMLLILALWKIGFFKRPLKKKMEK
- Sequence (P05556 21-798, chain 2 of 2, further chain): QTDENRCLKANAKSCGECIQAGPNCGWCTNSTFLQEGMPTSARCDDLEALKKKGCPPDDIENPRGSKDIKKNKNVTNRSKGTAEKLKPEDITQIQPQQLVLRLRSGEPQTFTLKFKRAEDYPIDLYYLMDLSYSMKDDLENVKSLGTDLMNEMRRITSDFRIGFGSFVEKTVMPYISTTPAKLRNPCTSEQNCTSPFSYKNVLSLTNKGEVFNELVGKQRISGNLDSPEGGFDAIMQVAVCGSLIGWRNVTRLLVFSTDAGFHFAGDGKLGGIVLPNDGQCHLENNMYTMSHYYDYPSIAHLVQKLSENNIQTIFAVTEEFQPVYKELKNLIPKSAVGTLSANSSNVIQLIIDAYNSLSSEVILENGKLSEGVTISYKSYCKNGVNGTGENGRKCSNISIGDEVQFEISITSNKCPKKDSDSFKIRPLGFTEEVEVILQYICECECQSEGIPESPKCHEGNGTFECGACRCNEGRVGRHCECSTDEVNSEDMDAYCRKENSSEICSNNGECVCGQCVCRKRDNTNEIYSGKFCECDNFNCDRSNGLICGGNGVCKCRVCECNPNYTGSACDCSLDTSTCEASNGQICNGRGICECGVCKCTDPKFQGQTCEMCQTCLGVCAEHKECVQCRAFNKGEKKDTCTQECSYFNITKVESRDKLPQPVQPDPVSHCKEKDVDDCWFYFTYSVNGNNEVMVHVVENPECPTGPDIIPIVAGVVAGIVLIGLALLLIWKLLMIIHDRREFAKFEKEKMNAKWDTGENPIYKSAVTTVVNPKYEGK
- test-method-notes: inhibition of adhesion of HS.939T cells to collagen IV
What pIC50 was measured for each of the following?
Answers are plain numbers, as −log10 of the molar value.

>  <binder>
CTTGPCCRQCKLKPAGTTCWKTSRTSHYCTGKSCDCPVYQG (modifications not checked) [viperisrastatin]

>  <measured-value>
11.70

$$$$

Shifting focus to the binder that follows.
## Input pIC50 for CTTGPCCRQCKLKPAGTTCWKTSLTSHYCTGKSCDCPLYPG (modifications not checked) [obtustatin] ?
## Output 10.00
